- TARGET_OR_TEST_SYSTEM: Hck (UniProt P08631)
- Sequence (P08631 whole entry, looked up): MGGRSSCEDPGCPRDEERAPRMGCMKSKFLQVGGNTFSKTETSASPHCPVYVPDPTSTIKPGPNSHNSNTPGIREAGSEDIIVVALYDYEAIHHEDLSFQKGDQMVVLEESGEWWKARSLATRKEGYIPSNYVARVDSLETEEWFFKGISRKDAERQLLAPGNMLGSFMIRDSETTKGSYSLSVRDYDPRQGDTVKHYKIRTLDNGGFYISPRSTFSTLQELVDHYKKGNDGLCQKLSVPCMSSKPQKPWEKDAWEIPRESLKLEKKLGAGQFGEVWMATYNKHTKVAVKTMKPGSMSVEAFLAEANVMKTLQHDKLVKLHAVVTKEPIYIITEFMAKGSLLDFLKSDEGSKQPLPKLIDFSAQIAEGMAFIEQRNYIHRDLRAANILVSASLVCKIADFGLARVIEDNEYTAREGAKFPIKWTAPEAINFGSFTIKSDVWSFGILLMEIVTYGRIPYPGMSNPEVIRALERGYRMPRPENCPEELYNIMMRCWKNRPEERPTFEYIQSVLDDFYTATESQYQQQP
- MEASUREMENT_DESCRIPTION: phosphorylation enrichment, bacterial display (enrichment ratio); higher = better substrate or ligand; peptides without Tyr show the background
Classification scheme (phosphorylation enrichment): range A: < 0.6; range B: ≥ 0.6 and < 1; range C: ≥ 1

Reference set, count: 5
AIIEEYLHLSD [EIF4G1_Y1253_N1257S]
range B
YQQLFYLLQIN [IQGAP2_Y890_T894I]
range B
RIDPDYMGRVR [IGSF9_Y81_V82M]
range A
RWQQLYDTLNA [EIF3M_Y351_Q346R]
range C
FEEVVYQAMEE [TACC3_Y684]
range C

// query Would you mind sorting KSFDMYSGDVM [FAM3D_Y122_A118S] into the appropriate category?
// result range C

// query Would you mind sorting GPQGFYSNKLV [PTPN14_Y506_V505F] into the appropriate category?
// result range A

* * *

- Tested on: AncSZ
- MEASUREMENT_DESCRIPTION: phosphorylation enrichment, bacterial display (enrichment ratio); higher = better substrate or ligand; peptides without Tyr show the background
Exercise: for every item that follows, state its recorded phosphorylation enrichment.
Numbers only.

RDLTDYLMKIL [ACTA1_Y190]
1.09
VRTGIYHGGEP [PIK3CA_Y361]
0.641
PADSGYPAYLG [ATP6V1A_Y374]
1.18
FENGEYIVRQG [PRKG1_Y247_I249V_YF]
0.888
GIVEDYRPPLF [ACVRL1_Y421_F425L_YF]
0.841
WFQTKYEELQI [KRT6B_Y360_YF]
0.839
RAQIRYAQEHD [NSD1_Y1987_R1984Q]
1.72
KKIMGYSIRTI [IDS_Y490_I485K]
0.625

Value sought for every listed sequence: phosphorylation enrichment.
1. DEFLEYRRIVG [FAM221A_Y20_YF]
2. GNHVSYFQSDG [CACNA1C_Y1757_YF]
3. RWGQKHMTAVV [CYBA_Y72_Y72H]
4. PPKFFDTRKLL [CYBB_Y41_Y41D]
5. ENQEIYRKAFD [KPNA1_Y493_Q494R]
6. SLDLSYFTTSS [EMD_Y181_P183T_YF]
7. NNTFLYQLVFD [EXO1_Y284]
8. DSYWSYCNAVA [SLC20A2_Y436_S434W]

// result
1: 0.83; 2: 0.656; 3: 1.13; 4: 0.992; 5: 0.883; 6: 0.876; 7: 1.35; 8: 1.43

Value sought for every listed sequence: phosphorylation enrichment.
1. TMKSRYMELFD [BBS2_Y644_YF]
2. AERKLYSGAQT [ZAP70_Y178]
3. EAGKVYLKAAM [CBFB_Y96_P100A]
4. SIKDKYVMALY [KCNH2_Y611_T613M]
5. KWTVDYLSQVG [TYW5_Y48]

// result
[0.765, 0.504, 1.03, 0.639, 0.953]

KVPAIYGVGTR [CPS1_Y162_D165G] yielded phosphorylation enrichment of 0.47

* * *

- TARGET_OR_TEST_SYSTEM: SHP2-C SH2
- MEASUREMENT_DESCRIPTION: SH2 binding enrichment of the phosphorylated peptide, bacterial display (enrichment ratio); higher = better substrate or ligand; peptides without Tyr show the background
Mark NOT MET for SH2 binding enrichment values under 0.6, and MET for everything at or above.

Reference set, count: 7
QDEHGYISWCF [HSPB1_Y133_R136W]
NOT MET
EEQKKNFNAMK [SCN5A_Y1494_Y1494N_YF]
MET
EFNLMYDGAKE [IRF6_Y97_T100A]
MET
LIFVSYDDWDF [GRIN2A_Y281_S278F_YF]
MET
SRPHLYGTPSR [ADGRE2_Y670]
MET
IGDENYGEGSS [ACO2_Y665]
MET
EEAAGYAQESQ [CAMKV_Y491]
MET

// query Record NVVNEYSSELE [FGB_Y172] ; criterion: SH2 binding enrichment no lower than 0.6. Met?
// result NOT MET

* * *

- TARGET_OR_TEST_SYSTEM: Hck (UniProt P08631)
- MEASUREMENT_DESCRIPTION: phosphorylation enrichment, bacterial display (enrichment ratio); higher = better substrate or ligand; peptides without Tyr show the background
Mark condition not met for phosphorylation enrichment values under 0.6, and condition met for everything at or above.

Reference set, count: 5
ENGPYYTSYPP [GDAP2_Y488]
condition met
QMIETYFDFRV [NSMF_Y506_L511V]
condition met
MIRSAYALGGL [CPS1_Y590]
condition not met
DSFWSYCNAVA [SLC20A2_Y436_S434W_YF]
condition not met
LTKQEYDEAGP [ACTA1_Y364_I359L]
condition met

Now look at this one.
// query Record QEIATYRRLPE [KRT16_Y417_L421P] ; criterion: phosphorylation enrichment no lower than 0.6. Met?
// result condition not met

* * *

- TARGET_OR_TEST_SYSTEM: Grb2 SH2 (UniProt P62993)
- Sequence (P62993 whole entry, looked up): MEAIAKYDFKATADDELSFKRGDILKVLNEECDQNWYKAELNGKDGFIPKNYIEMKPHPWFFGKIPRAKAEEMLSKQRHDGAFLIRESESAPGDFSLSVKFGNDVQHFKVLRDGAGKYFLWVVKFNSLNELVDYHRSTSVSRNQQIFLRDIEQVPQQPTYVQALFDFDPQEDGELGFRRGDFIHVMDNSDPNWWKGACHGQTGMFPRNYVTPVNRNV
- MEASUREMENT_DESCRIPTION: SH2 binding enrichment of the phosphorylated peptide, bacterial display (enrichment ratio); higher = better substrate or ligand; peptides without Tyr show the background
EXPERIMENTAL_READOUT: SH2 binding enrichment
Numbers only.

Value sought for every listed sequence: SH2 binding enrichment.
1. EEGNPYYSGAR [MCCC2_Y520_S523G]
2. NVSILYTASQA [CTNNA1_Y222_P219S]
3. FRNSLYAPDYS [FAM92A_Y226]
4. FQGRRYDCDCD [CRYGS_Y21]

// result
1. 0.9
2. 0.921
3. 0.79
4. 0.926

* * *

- TARGET_OR_TEST_SYSTEM: SHP2-C SH2
- MEASUREMENT_DESCRIPTION: SH2 binding enrichment of the phosphorylated peptide, bacterial display (enrichment ratio); higher = better substrate or ligand; peptides without Tyr show the background
Exercise: for every item that follows, state its recorded SH2 binding enrichment.
One number for each entry.

Some solved cases for reference:
PPPPAYDDVAQ [TNK2_Y635]
0.706
QYPDIYAREEV [CRX_Y67_V66I]
0.299
VHFLVYHHHHH [CACNA1H_Y519_H516Y_YF]
0.755

Value sought for every listed sequence: SH2 binding enrichment.
1. PVKDPYVMFPQ [PLEKHG2_Y489]
2. GNHVSYFQSDG [CACNA1C_Y1757_YF]
3. KLNNEHLELNY [MME_Y497_Y497H]
4. AVLSLYASDRT [ACTA1_Y145_G148D]
5. FRTPGYREVVI [TNS2_Y673_A670T_YF]

// result
[0.453, 0.706, 0.734, 0.88, 0.901]

Value sought for every listed sequence: SH2 binding enrichment.
1. TMKSHYMELYD [BBS2_Y644_R643H]
2. EYFDGYWGYSV [ITGA2B_Y265]
3. RLNWIYYKDQT [RS1_Y165]

// result
1. 1.84
2. 0.578
3. 0.801

Value sought for every listed sequence: SH2 binding enrichment.
1. TVSTRYTQPQP [SARG_Y259]
2. MFFSTYDRDND [FGB_Y408]

// result
1.03
1.03

* * *

Exercise: for every item that follows, state its recorded phosphorylation enrichment.
- TARGET_OR_TEST_SYSTEM: EPHB1 (UniProt P54762)
- Sequence (P54762 whole entry, looked up): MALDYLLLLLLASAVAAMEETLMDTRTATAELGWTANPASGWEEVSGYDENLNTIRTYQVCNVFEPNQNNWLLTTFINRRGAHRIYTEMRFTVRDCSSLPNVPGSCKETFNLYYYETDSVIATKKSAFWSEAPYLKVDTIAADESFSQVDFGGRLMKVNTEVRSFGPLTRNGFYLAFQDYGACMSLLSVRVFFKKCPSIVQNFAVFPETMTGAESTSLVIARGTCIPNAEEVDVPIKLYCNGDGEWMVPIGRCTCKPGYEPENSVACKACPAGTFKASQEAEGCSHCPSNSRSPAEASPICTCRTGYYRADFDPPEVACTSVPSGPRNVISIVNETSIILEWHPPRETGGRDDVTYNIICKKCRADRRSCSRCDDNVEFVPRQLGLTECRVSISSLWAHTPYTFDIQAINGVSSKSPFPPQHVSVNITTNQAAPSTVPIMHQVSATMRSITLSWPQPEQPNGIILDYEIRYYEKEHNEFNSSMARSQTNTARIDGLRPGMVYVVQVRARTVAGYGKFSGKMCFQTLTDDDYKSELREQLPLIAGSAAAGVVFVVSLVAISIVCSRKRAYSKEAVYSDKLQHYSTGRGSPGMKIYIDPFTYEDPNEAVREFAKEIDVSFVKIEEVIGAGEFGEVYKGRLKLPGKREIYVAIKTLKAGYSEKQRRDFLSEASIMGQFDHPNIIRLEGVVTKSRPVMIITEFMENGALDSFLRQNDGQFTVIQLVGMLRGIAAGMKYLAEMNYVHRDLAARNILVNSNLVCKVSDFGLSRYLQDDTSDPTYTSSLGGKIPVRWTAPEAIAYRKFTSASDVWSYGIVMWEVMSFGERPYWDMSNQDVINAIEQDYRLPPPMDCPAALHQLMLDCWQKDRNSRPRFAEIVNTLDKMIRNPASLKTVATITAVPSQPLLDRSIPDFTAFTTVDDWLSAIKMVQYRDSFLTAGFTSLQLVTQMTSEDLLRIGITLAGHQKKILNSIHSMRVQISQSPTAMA
- MEASUREMENT_DESCRIPTION: phosphorylation enrichment, bacterial display (enrichment ratio); higher = better substrate or ligand; peptides without Tyr show the background
One number for each entry.

Some solved cases for reference:
NMSRIYSTAKV [ACE_Y151]
0.342
PFWKLYESVKK [MKI67_Y241]
6.75
QLYGPYLRIHA [BSCL2_Y213_A212P]
0.897
FSVDGYDSSVR [KCNQ1_Y461]
0.519
REEKNYKHKET [BCLAF1_Y459_L461H]
0.422
CTTIQYNFMCN [TP53_Y234_H233Q_YF]
0.499
LSPNMYNSKFW [TARSL2_Y457_L461F]
1.41
VVAHQYSFAPD [TNS3_Y601]
0.521
ATDLAYFLVRE [ASL_Y375_K380E_YF]
1.02
KAIMTYVSSFF [ACTN4_Y260_YF]
0.57

Value sought for every listed sequence: phosphorylation enrichment.
1. CDLTDYLMKIL [ACTA1_Y190_R185C]
2. KIVFVYVKKRS [DNAI2_Y7_E2K_YF]
3. AYGNLYGSRKQ [YIPF7_Y59]
4. AVARPYHIQKW [ACSBG1_Y677_A673V]
5. RLPSGYGLAYR [DLK1_Y262]

// result
1: 0.791; 2: 0.439; 3: 0.324; 4: 0.381; 5: 0.464
